Attribution: patent US12286435B2

Readings of pKi for the listed compounds
Target: BRD4 BD1 protein (Homo sapiens (Human))
Assay: Fluorescence polarization binding affinity (Ki) with BRD4 BD1 protein
Here pKi is given on a logarithmic scale as minus log10 of the concentration in mol/L.

Cc1nnn2c1-c1ccc(C3=CCN(C4CCCCC4)CC3)cc1C(Nc1cccc(Cl)c1F)CC2 (centres unmarked) [RD178, 2,2,2-trifluoroacetate] ... 5.90
CC(=O)N1CC=C(c2ccc3c(c2)C(N(C(C)=O)c2cccc(Cl)c2)CCn2nnc(C)c2-3)CC1 (centres unmarked) [LD13] ... 6.03

response.value for CCN1CC=C(c2ccc3c(c2)C(Nc2cc(Cl)ccc2F)CCn2nnc(C)c2-3)CC1 (centres unmarked) [RD123, 2,2,2-trifluoroacetate] (field: pKi) = 5.96

Looking up CCN1CC=C(c2ccc3c(c2)C(Nc2ccc(F)c(Cl)c2)CCn2nnc(C)c2-3)CC1 (centres unmarked) [RD121, 2,2,2-trifluoroacetate] , I see its pKi listed as 6.10

get_value(item= Cc1nnn2c1-c1ccc(C3=CCN(C4CCC4)CC3)cc1C(Nc1cccc(Cl)c1F)CC2 (centres unmarked) [RE30, 2,2,2-trifluoroacetate] , readout=pKi) returns 6.38
